System: human embryonic stem cell derived neural stem cells (NSCs)
Assay summary: Neural stem cell proliferation assay (neurogenesis assay)
Type: cell-based
Experimental conditions: Homo sapiens, Neural stem cell, 96 h; Table 1, novel compounds; concentration at which 150% activity of control (100%) is reached; ATP levels (CellTiterGlo) after 4 days incubation
Class membership depends on EC (150% of control) alone; the intervals are lower bin: < 0.06 µM; middle bin: ≥ 0.06 µM and < 0.2 µM; upper bin: ≥ 0.2 µM

Here's what some known entries look like.
- Compound: "N#Cc1ccc(-c2cncc3ccc(C(N)=O)nc23)cc1"
  Label value: "lower bin"
- Compound: "CS(=O)(=O)c1ccc(-c2cncc3ccc(C(N)=O)nc23)cc1"
  Label value: "lower bin"
- Compound: "CN(CC1CC1)C(=O)c1ccc2cncc(-c3ccc(Cl)cc3)c2n1"
  Label value: "upper bin"
- Compound: "Cc1ccc(-c2cncc3ccc(C(N)=O)nc23)cc1 [Example 80, 8-Tolyl-1,6-naphthyridine-2-carboxamide]"
  Label value: "lower bin"
- Compound: "CC(NC(=O)c1ccc2cncc(-c3ccc(F)cc3)c2n1)c1ccc(S(C)(=O)=O)cc1 (stereo not drawn)"
  Label value: "middle bin"

Could you tell me which band CC1(CNC(=O)c2ccc3cncc(-c4ccc(Cl)cc4)c3n2)CCC(=O)N1 (stereo not drawn) belongs to? lower bin

Could you tell me which band CC(C)(C)NC(=O)c1ccc2cncc(-c3ccc(Cl)cc3)c2n1 belongs to? upper bin

Could you tell me which band NC(=O)c1ccc2cncc(-c3ccc(N4CCOCC4)cc3)c2n1 belongs to? lower bin

Could you tell me which band COCCNC(=O)c1ccc2cncc(-c3ccccc3OC)c2n1 belongs to? upper bin

Could you tell me which band O=C(NCc1ccccc1)c1ccc2cncc(-c3cccnc3)c2n1 belongs to? middle bin

Could you tell me which band NCc1ccc(-c2cncc3ccc(C(N)=O)nc23)cc1 belongs to? upper bin

Could you tell me which band COCCNC(=O)c1ccc2cnccc2n1 belongs to? upper bin

Could you tell me which band COc1ccccc1CNC(=O)c1ccc2cncc(-c3ccc(Cl)cc3)c2n1 belongs to? middle bin

Could you tell me which band O=C(c1ccc2cncc(-c3ccc(Cl)cc3)c2n1)N1CCC(O)C1 (stereo not drawn) belongs to? upper bin

Could you tell me which band O=C(NC1CC1)c1ccc2cncc(-c3ccc(Cl)cc3)c2n1 belongs to? middle bin

Could you tell me which band O=C(NCC(F)(F)F)c1ccc2cncc(-c3ccccc3F)c2n1 belongs to? lower bin

====

System: human embryonic stem cell derived neural stem cells (NSCs)
Assay summary: Neural stem cell proliferation assay (neurogenesis assay)
Type: cell-based
Experimental conditions: Homo sapiens, Neural stem cell, 96 h; Table 1, novel compounds; concentration at which 150% activity of control (100%) is reached; ATP levels (CellTiterGlo) after 4 days incubation
Reported metric: EC (150% of control) (µM)
Provide only the numeric value, understood in µM.

- Compound: "O=C(c1ccc2cncc(-c3ccc(Cl)c(F)c3)c2n1)N1CCC(O)C1 (stereo not shown)"
  Numeric value: 0.07

Enter reported EC (150% of control) observed with human embryonic stem cell derived neural stem cells (NSCs) for O=C(NCc1ccncc1)c1ccc2cncc(-c3ccccc3Cl)c2n1 0.49

Enter reported EC (150% of control) observed with human embryonic stem cell derived neural stem cells (NSCs) for CC(NC(=O)c1ccc2cncc(-c3ccc(Cl)cc3)c2n1)C(C)(C)O (stereo not shown) 0.06

Enter reported EC (150% of control) observed with human embryonic stem cell derived neural stem cells (NSCs) for CS(=O)(=O)CCNC(=O)c1ccc2cncc(-c3ccc(F)c(F)c3)c2n1 0.35

Enter reported EC (150% of control) observed with human embryonic stem cell derived neural stem cells (NSCs) for COCCNC(=O)c1ccc2cncc(-c3ccc(Cl)cc3)c2n1 0.02

Enter reported EC (150% of control) observed with human embryonic stem cell derived neural stem cells (NSCs) for O=C(NCc1ccncc1)c1ccc2cncc(Br)c2n1 1.27

Enter reported EC (150% of control) observed with human embryonic stem cell derived neural stem cells (NSCs) for COCCNC(=O)c1ccc2cncc(-c3ccccc3Cl)c2n1 0.33

Enter reported EC (150% of control) observed with human embryonic stem cell derived neural stem cells (NSCs) for Cc1cc(-c2cncc3ccc(C(N)=O)nc23)ccn1 0.17

Enter reported EC (150% of control) observed with human embryonic stem cell derived neural stem cells (NSCs) for NC(=O)c1ccc2cncc(-c3ccc(F)c(F)c3)c2n1 0.1

Enter reported EC (150% of control) observed with human embryonic stem cell derived neural stem cells (NSCs) for CN1CCN(C(=O)c2ccc3cncc(-c4ccc(Cl)cc4)c3n2)CC1 0.64

Enter reported EC (150% of control) observed with human embryonic stem cell derived neural stem cells (NSCs) for COCCNC(=O)c1ccc2cncc(Br)c2n1 1.2

Enter reported EC (150% of control) observed with human embryonic stem cell derived neural stem cells (NSCs) for CCCCCCC(=O)NCc1cccc(-c2cncc3ccc(C(N)=O)nc23)c1 0.03

Enter reported EC (150% of control) observed with human embryonic stem cell derived neural stem cells (NSCs) for CN(C)c1cc(-c2cncc3ccc(C(N)=O)nc23)ccn1 0.147

====

Test system: human embryonic stem cell derived neural stem cells (NSCs)
Assay summary: Neural stem cell proliferation assay (neurogenesis assay)
Format: cell-based
Experimental conditions: Homo sapiens, Neural stem cell, 96 h; Table 1, novel compounds; concentration at which 150% activity of control (100%) is reached; ATP levels (CellTiterGlo) after 4 days incubation
Reported metric: EC (150% of control)

Known results for compounds:
- Compound: "NC(=O)c1ccc2cncc(-c3ccc(OCC(F)(F)F)cc3)c2n1"
  Result: "0.01 µM"
- Compound: "Cc1nc(C)c(-c2cncc3ccc(C(N)=O)nc23)s1"
  Result: "0.14 µM"
- Compound: "COCCN(Cc1ccccc1)C(=O)c1ccc2cncc(-c3ccc(OC)cc3)c2n1"
  Result: "0.21 µM"
- Compound: "O=C(NCCCn1ccnc1)c1ccc2cncc(-c3ccccc3Cl)c2n1"
  Result: "0.69 µM"

Attention now turns to another entry.
Can you look up the measured EC (150% of control) of O=C(Nc1ccccc1)c1ccc2cncc(-c3ccc(Cl)cc3)c2n1 for me? 0.23 µM

====

Recorded EC (150% of control), one value per entry.
Test system: human embryonic stem cell derived neural stem cells (NSCs)
Assay summary: Neural stem cell proliferation assay (neurogenesis assay)
Type: cell-based
Experimental conditions: Homo sapiens, Neural stem cell, 96 h; Table 1, novel compounds; concentration at which 150% activity of control (100%) is reached; ATP levels (CellTiterGlo) after 4 days incubation
Provide only the numeric value, understood in µM.

Known results for molecules:
- Molecule: "CC(NC(=O)c1ccc2cncc(-c3ccc(OCC(F)(F)F)cc3)c2n1)C(C)(C)O (stereo not shown) [Example 163]"
  Numeric value: 0.07
- Molecule: "NC(=O)c1ccc2cncc(C3=CCOCC3)c2n1 [Example 146]"
  Numeric value: 0.21

Enter reported EC (150% of control) observed with human embryonic stem cell derived neural stem cells (NSCs) for O=C(NCCO)c1ccc2cncc(-c3ccc(Cl)cc3)c2n1 [Example 158] 0.09

Enter reported EC (150% of control) observed with human embryonic stem cell derived neural stem cells (NSCs) for O=C(c1ccc2cncc(-c3ccc(Cl)cc3)c2n1)N1CCOCC1 [Example 57] 0.17

====

Tested on: human embryonic stem cell derived neural stem cells (NSCs)
Assay summary: Neural stem cell proliferation assay (neurogenesis assay)
Type: cell-based
Experimental conditions: Homo sapiens, Neural stem cell, 96 h; Table 2, known compounds; concentration at which 150% activity of control (100%) is reached; ATP levels (CellTiterGlo) after 4 days incubation
Reported metric: log10(EC (150% of control)) (log10 of the value in µM)
All values: log10 EC (150% of control) [µM].

- Molecule: "COc1ccc(-c2cncc3ccc(C(=O)NCc4ccncc4)nc23)cc1 [Example 181]"
  log10(EC (150% of control)): -1.40
- Molecule: "COc1ccc(-c2cncc3ccc(C(=O)NCc4ccccc4)nc23)cc1 [Example 184]"
  log10(EC (150% of control)): -0.80
- Molecule: "COc1ccc(-c2cncc3ccc(C(=O)N4CCN(Cc5nc(OC)cc(OC)n5)CC4)nc23)cc1 [Example 187]"
  log10(EC (150% of control)): -0.15
- Molecule: "COc1ccc(-c2cncc3ccc(C(=O)NCc4cnc(C)cn4)nc23)cc1 [Example 180]"
  log10(EC (150% of control)): 0.10
- Molecule: "CS(=O)(=O)c1ccc(CNC(=O)c2ccc3cncc(-c4ccccc4)c3n2)cc1 [Example 195]"
  log10(EC (150% of control)): 0.60

Can you look up the measured log10(EC (150% of control)) of O=C(NCCCn1ccnc1)c1ccc2cncc(-c3ccccc3)c2n1 [Example 189] for me? 0.08

Can you look up the measured log10(EC (150% of control)) of O=C(NCc1ccc(Cl)cc1)c1ccc2cncc(-c3ccsc3)c2n1 [Example 201] for me? -0.10

Can you look up the measured log10(EC (150% of control)) of O=C(NCc1ccccc1)c1ccc2cncc(-c3ccccc3)c2n1 [Example 191] for me? -0.36

Can you look up the measured log10(EC (150% of control)) of O=C(NCc1ccncc1)c1ccc2cncc(-c3ccsc3)c2n1 [Example 198] for me? -0.92

Can you look up the measured log10(EC (150% of control)) of COc1ccccc1CNC(=O)c1ccc2cncc(-c3ccsc3)c2n1 [Example 202] for me? -0.82

Can you look up the measured log10(EC (150% of control)) of O=C(c1ccc2cncc(-c3ccccc3)c2n1)N1CCN(c2ccccn2)CC1 [Example 192] for me? 0.15

Can you look up the measured log10(EC (150% of control)) of O=C(NCc1ccc(C(F)(F)F)nc1)c1ccc2cncc(-c3ccsc3)c2n1 [Example 203] for me? 0.18

Can you look up the measured log10(EC (150% of control)) of O=C(NCCCN1CCOCC1)c1ccc2cncc(-c3ccccc3)c2n1 [Example 188] for me? 0.83

Can you look up the measured log10(EC (150% of control)) of O=C(c1ccc2cncc(-c3ccsc3)c2n1)N1CCN(c2ccccn2)CC1 [Example 200] for me? -0.10

Can you look up the measured log10(EC (150% of control)) of O=C(NCCCn1ccnc1)c1ccc2cncc(-c3ccsc3)c2n1 [Example 197] for me? 0.30

Can you look up the measured log10(EC (150% of control)) of COc1ccc(-c2cncc3ccc(C(=O)NCCCn4ccnc4)nc23)cc1 [Example 179] for me? -0.15

Can you look up the measured log10(EC (150% of control)) of O=C(NCc1ccccc1)c1ccc2cncc(-c3ccsc3)c2n1 [Example 199] for me? -1.00

Can you look up the measured log10(EC (150% of control)) of Cc1cnc(CNC(=O)c2ccc3cncc(-c4ccccc4)c3n2)cn1 [Example 190] for me? -0.30
